- TEST DESCRIPTION: Absolute / oral bioavailability
- Assay type: in vivo
- MEASUREMENT CONTEXT: human, plasma, oral

| MOLECULE | bioavailability |
| --- | --- |
| Cc1ccccc1-c1cc(N2CCN(C)CC2)ncc1N(C)C(=O)C(C)(C)c1cc(C(F)(F)F)cc(C(F)(F)F)c1 | 63 to 87% |
